# target.system: LINGO-1 (human) (UniProt Q96FE5)
# assay.notes: ELISA

- binder: "Li62 variant D05 Fab (VH CDR3 SEQ ID NO:31) (Fab, V domains shown) VH: EVQLLESGGGLVQPGGSLRLSCAASGFTFSIYPMFWVRQAPGKGLEWVSWIGPSGGITKYADSVKGRFTISRDNSKNTLYLQMNSLRAEDTATYYCAREGYYDWYFELWGRGTLVTVSS VL: DIQMTQSPSFLSASVGDSVAITCRASQDISRYLAWYQQRPGKAPKLLIYDASNLQTGVPSRFSGSGSGTDFTFTITSLQPEDFGTYYCQQYDTLHPSFGPGTTVDIK"
  ELISA Signal: 3
- binder: "Li62 variant F02 Fab (VH CDR3 SEQ ID NO:32) (Fab, V domains shown) VH: EVQLLESGGGLVQPGGSLRLSCAASGFTFSIYPMFWVRQAPGKGLEWVSWIGPSGGITKYADSVKGRFTISRDNSKNTLYLQMNSLRAEDTATYYCAREGLIDWFFDQWGRGTLVTVSS VL: DIQMTQSPSFLSASVGDSVAITCRASQDISRYLAWYQQRPGKAPKLLIYDASNLQTGVPSRFSGSGSGTDFTFTITSLQPEDFGTYYCQQYDTLHPSFGPGTTVDIK"
  ELISA Signal: 3
- binder: "Li62 variant B01 Fab (VH CDR3 SEQ ID NO:20) (Fab, V domains shown) VH: EVQLLESGGGLVQPGGSLRLSCAASGFTFSIYPMFWVRQAPGKGLEWVSWIGPSGGITKYADSVKGRFTISRDNSKNTLYLQMNSLRAEDTATYYCAREGQYDWYFELWGRGTLVTVSS VL: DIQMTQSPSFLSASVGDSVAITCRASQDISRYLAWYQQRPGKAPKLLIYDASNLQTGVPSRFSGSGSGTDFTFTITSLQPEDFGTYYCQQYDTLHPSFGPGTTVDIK"
  ELISA Signal: 3
